Would you mind telling me the reported AUC of each entry?
test_summary: Oral bioavailability in rats (p.o. vs i.v., HPLC/MS-MS)
assay_setup: rat, in vivo
I only need the number, in ng·h/mL, no unit after it.

Q: # lookup: AUC of CC[C@H]1OC(=O)[C@H](C)[C@@H](O)[C@H](C)[C@@H](O[C@@H]2O[C@H](C)C[C@H](N(C)C)[C@H]2O)[C@](C)(O)C[C@@H](C)CN(CCCNC(=O)Cc2c(C)n(C(=O)c3ccc(Cl)cc3)c3ccc(OC)cc23)[C@H](C)[C@@H](O)[C@]1(C)O
Result: 1130

Q: Queued: CC[C@H]1OC(=O)[C@H](C)[C@@H](O[C@H]2C[C@@](C)(OC)[C@@H](O)[C@H](C)O2)[C@H](C)[C@@H](O[C@@H]2O[C@H](C)C[C@H](N(C)C)[C@H]2O)[C@](C)(O)C[C@@H](C)CN(CCCNC(=O)c2cccnc2Nc2cccc(C(F)(F)F)c2C)[C@H](C)[C@@H](O)[C@]1(C)O
Result: 2180

Q: Queued: CC[C@H]1OC(=O)[C@H](C)[C@@H](O[C@H]2C[C@@](C)(OC)[C@@H](O)[C@H](C)O2)[C@H](C)[C@@H](O[C@@H]2O[C@H](C)C[C@H](N(C)C)[C@H]2O)[C@](C)(O)C[C@@H](C)CN(CCCNC(=O)Cc2c(C)n(C(=O)c3ccc(Cl)cc3)c3ccc(OC)cc23)[C@H](C)[C@@H](O)[C@]1(C)O
Result: 2580

Numbers sourced from patent US20060183696A1.
